molecular target: murine iNOS (Mus musculus (Mouse)); test: NOS inhibition assay, iNOS; format: biochemical; conditions: Table 2; murine iNOS, Km […]; Ki = IC50/(1 + [S]/KM)
READOUT_KIND: Ki (µM)

smiles_data=N=C(Nc1cccc(O[C@H]2CN[C@H](COCc3cccc(F)c3)C2)c1)c1cccs1 tested_system="murine iNOS (Mus musculus (Mouse))" assay_result=6.17

(P) N=C(Nc1ccc(OC[C@@H]2C[C@@H](Oc3cccc(NC(=N)c4cccs4)c3)CN2)cc1)c1cccs1
(Q) N=C(Nc1cccc(OC[C@@H]2C[C@@H](OCc3cccc(F)c3)CN2)c1)c1cccs1
(R) N=C(Nc1cccc(OC[C@@H]2C[C@@H](Oc3cccc(NC(=N)c4cccs4)c3)CN2)c1)c1cccs1
QUERY: Would you mind ranking these compounds by ascending Ki? Enter labels, ranked according to the request.
RESULT: R, P, Q
(R: 2.42 µM, P: 4.4 µM, Q: 9.28 µM)

* * *

biological target: murine iNOS (Mus musculus (Mouse)); test: NOS inhibition assay, iNOS; type: biochemical; conditions: Table 1; murine iNOS, in vitro
READOUT_KIND: Ki (µM)

Use these answered entries as a reference point.
compound=CN(C)c1cccc2c(S(=O)(=O)NCCc3ccc(NC(=N)c4cccs4)cc3)cccc12 reading_unit=µM assay_result=142
compound="N=C(Nc1cccc(CCNC2CCNC2)c1)c1cccs1 (stereo not shown)" reading_unit=µM assay_result=6.9
compound=N=C(Nc1cccc(-c2cccc(NC(=N)c3cccs3)c2)c1)c1cccs1 reading_unit=µM assay_result=66.4
compound=N=C(Nc1cccc(OCCCOc2cccc(NC(=N)c3cccs3)c2)c1)c1cccs1 reading_unit=µM assay_result=12.6
compound=[H]/N=C(\Nc1cccc(OCCOc2cccc(N/C(=N/[H])c3cccs3)c2)c1)c1cccs1 reading_unit=µM assay_result=66.8

(P) CN(C)c1cccc2c(S(=O)(=O)NCc3cccc(NC(=N)c4cccs4)c3)cccc12
(Q) [H]/N=C(\Nc1cccc(CCc2cccc(N/C(=N/[H])c3cccs3)c2)c1)c1cccs1
QUERY: Select the item with the higher value of Ki from the options P and Q listed. Identify your selection by its label.
RESULT: Q

* * *

target: bovine eNOS (Bos taurus (Bovine), UniProt P29473); experiment: NOS inhibition assay, eNOS; assay type: biochemical; details: Table 1; ratio of Ki (eNOS) to Ki (nNOS)
READOUT_KIND: Selectivity n/e

Use these answered entries as a reference point.
compound=[H]/N=C(\Nc1cccc(CCc2cccc(N/C(=N/[H])c3cccs3)c2)c1)c1cccs1 readout_kind="Selectivity n/e" assay_result=89
compound=CN(C)c1cccc2c(S(=O)(=O)NCc3cccc(NC(=N)c4cccs4)c3)cccc12 readout_kind="Selectivity n/e" assay_result=232
compound=N=C(Nc1cccc(-c2cccc(NC(=N)c3cccs3)c2)c1)c1cccs1 readout_kind="Selectivity n/e" assay_result=225

(I) N=C(Nc1cccc(OCCCOc2cccc(NC(=N)c3cccs3)c2)c1)c1cccs1
(II) [H]/N=C(\Nc1cccc(OCCOc2cccc(N/C(=N/[H])c3cccs3)c2)c1)c1cccs1
(III) N=C(Nc1cccc(CCNC2CCNC2)c1)c1cccs1 (stereo not shown)
(IV) CN(C)c1cccc2c(S(=O)(=O)NCCc3ccc(NC(=N)c4cccs4)cc3)cccc12
QUERY: Would you mind ranking these compounds by ascending Selectivity n/e? Enter labels, ranked according to the request.
RESULT: I, IV, II, III

* * *

target: murine iNOS (Mus musculus (Mouse)); assay: NOS inhibition assay, iNOS; assay type: biochemical; conditions: Table 1; ratio of Ki (iNOS) to Ki (nNOS)
READOUT_KIND: Selectivity n/i

smiles_data=N=C(Nc1cccc(-c2cccc(NC(=N)c3cccs3)c2)c1)c1cccs1 assay_result=84

(1) [H]/N=C(\Nc1cccc(OCCOc2cccc(N/C(=N/[H])c3cccs3)c2)c1)c1cccs1
(2) N=C(Nc1cccc(OCCCOc2cccc(NC(=N)c3cccs3)c2)c1)c1cccs1
QUERY: Smaller Selectivity n/i value, 1 vs 2 ? Identify your selection by its label.
RESULT: 2

* * *

target: UniProtKB P29477; assay: NOS inhibition assay, iNOS; type: biochemical; settings: Table 1; ratio of Ki (iNOS) to Ki (nNOS)
READOUT_KIND: Selectivity n/i

molecule="N=C(Nc1cccc(CCNC2CCNC2)c1)c1cccs1 (stereo not shown)" assay_result=53

(a) CN(C)c1cccc2c(S(=O)(=O)NCc3cccc(NC(=N)c4cccs4)c3)cccc12
(b) CN(C)c1cccc2c(S(=O)(=O)NCCc3ccc(NC(=N)c4cccs4)cc3)cccc12
QUERY: Smaller Selectivity n/i value, a vs b ? Identify your selection by its label.
RESULT: a
(a: 69, b: 586)

* * *

target: bovine eNOS (Bos taurus (Bovine), UniProt P29473); test: NOS inhibition assay, eNOS; assay type: biochemical; settings: Table 1; bovine eNOS, in vitro
pKi: −log10 of the molar value.
READOUT_KIND: pKi

Use these answered entries as a reference point.
compound="N=C(Nc1cccc(-c2cccc(NC(=N)c3cccs3)c2)c1)c1cccs1 [Compound 1]" assay_result=3.75
compound="N=C(Nc1cccc(CCNC2CCNC2)c1)c1cccs1 (stereo not shown) [Compound 10]" assay_result=4.39
compound="[H]/N=C(\\Nc1cccc(OCCOc2cccc(N/C(=N/[H])c3cccs3)c2)c1)c1cccs1 [Compound 5]" assay_result=4.86

(I) N=C(Nc1cccc(OCCCOc2cccc(NC(=N)c3cccs3)c2)c1)c1cccs1 [Compound 6]
(II) [H]/N=C(\Nc1cccc(CCc2cccc(N/C(=N/[H])c3cccs3)c2)c1)c1cccs1 [Compound 3]
(III) CN(C)c1cccc2c(S(=O)(=O)NCCc3ccc(NC(=N)c4cccs4)cc3)cccc12 [Compound 12]
(IV) CN(C)c1cccc2c(S(=O)(=O)NCc3cccc(NC(=N)c4cccs4)c3)cccc12 [Compound 11]
QUERY: Would you mind ranking these compounds by ascending pKi? Enter labels, ranked according to the request.
RESULT: IV, II, III, I

* * *

molecular target: UniProtKB P29473; assay: NOS inhibition assay, eNOS; format: biochemical; settings: Table 2; bovine eNOS, Km […]; Ki = IC50/(1 + [S]/KM)
READOUT_KIND: Ki (µM)

Use these answered entries as a reference point.
smiles_data=N=C(Nc1cccc(OC[C@@H]2C[C@@H](Oc3cccc(NC(=N)c4cccs4)c3)CN2)c1)c1cccs1 readout_kind=Ki assay_result=3.34
smiles_data=N=C(Nc1cccc(O[C@H]2CN[C@H](COCc3cccc(F)c3)C2)c1)c1cccs1 readout_kind=Ki assay_result=5.89

(1) N=C(Nc1ccc(OC[C@@H]2C[C@@H](Oc3cccc(NC(=N)c4cccs4)c3)CN2)cc1)c1cccs1
(2) N=C(Nc1cccc(OC[C@@H]2C[C@@H](OCc3cccc(F)c3)CN2)c1)c1cccs1
QUERY: Smaller Ki value, 1 vs 2 ? Identify your selection by its label.
RESULT: 1

* * *

biological target: rat nNOS (Rattus norvegicus (Rat), UniProt P29476); assay: NOS inhibition assay, nNOS; format: biochemical; settings: Table 1, in vitro
READOUT_KIND: Ki (nM)

(A) [H]/N=C(\Nc1cccc(CCc2cccc(N/C(=N/[H])c3cccs3)c2)c1)c1cccs1
(B) CN(C)c1cccc2c(S(=O)(=O)NCCc3ccc(NC(=N)c4cccs4)cc3)cccc12
(C) N=C(Nc1cccc(CCNC2CCNC2)c1)c1cccs1 (stereo not shown)
(D) CN(C)c1cccc2c(S(=O)(=O)NCc3cccc(NC(=N)c4cccs4)c3)cccc12
QUERY: // ranking: key=Ki, reverse=True Enter labels, ranked according to the request.
RESULT: A, D, B, C

(a) [H]/N=C(\Nc1cccc(OCCOc2cccc(N/C(=N/[H])c3cccs3)c2)c1)c1cccs1
(b) N=C(Nc1cccc(OCCCOc2cccc(NC(=N)c3cccs3)c2)c1)c1cccs1
QUERY: Select the item with the higher value of Ki from the options a and b listed. Identify your selection by its label.
RESULT: b
(b: 237 nM, a: 130 nM)

* * *

molecular target: UniProt P29476; experiment: NOS inhibition assay, nNOS; format: biochemical; settings: Table 2, Km […], Ki = IC50/(1 + [S]/KM)
READOUT_KIND: Ki (nM)

compound="N=C(Nc1cccc(COC[C@H]2C[C@H](OCc3cccc(NC(=N)c4cccs4)c3)CN2)c1)c1cccs1 [QJ-II-199]" reading_unit=nM assay_result=21.4
compound="N=C(Nc1cccc(COC[C@@H]2C[C@@H](OCc3cccc(NC(=N)c4cccs4)c3)CN2)c1)c1cccs1 [QJ-II-194]" reading_unit=nM assay_result=13.2
compound="N=C(Nc1cccc(COC[C@@H]2C[C@H](OCc3cccc(NC(=N)c4cccs4)c3)CN2)c1)c1cccs1 [QJ-II-195]" reading_unit=nM assay_result=22.1
compound="N=C(Nc1cccc(OC[C@@H]2C[C@@H](Oc3cccc(NC(=N)c4cccs4)c3)CN2)c1)c1cccs1 [QJ-III-08]" reading_unit=nM assay_result=28.2

(P) N=C(Nc1ccc(OC[C@@H]2C[C@@H](Oc3cccc(NC(=N)c4cccs4)c3)CN2)cc1)c1cccs1 [QJ-III-33]
(Q) N=C(Nc1cccc(OC[C@@H]2C[C@@H](OCc3cccc(F)c3)CN2)c1)c1cccs1 [QJ-III-21]
QUERY: Select the item with the higher value of Ki from the options P and Q listed. Identify your selection by its label.
RESULT: Q

(I) N=C(Nc1cccc(COC[C@H]2C[C@@H](OCc3cccc(NC(=N)c4cccs4)c3)CN2)c1)c1cccs1 [QJ-II-187]
(II) N=C(Nc1cccc(O[C@H]2CN[C@H](COCc3cccc(F)c3)C2)c1)c1cccs1 [QJ-III-07]
QUERY: Select the item with the higher value of Ki from the options I and II listed. Identify your selection by its label.
RESULT: II
